# Experimental target: IRAK1 (Homo sapiens (Human))
# Sequence (P51617 whole entry): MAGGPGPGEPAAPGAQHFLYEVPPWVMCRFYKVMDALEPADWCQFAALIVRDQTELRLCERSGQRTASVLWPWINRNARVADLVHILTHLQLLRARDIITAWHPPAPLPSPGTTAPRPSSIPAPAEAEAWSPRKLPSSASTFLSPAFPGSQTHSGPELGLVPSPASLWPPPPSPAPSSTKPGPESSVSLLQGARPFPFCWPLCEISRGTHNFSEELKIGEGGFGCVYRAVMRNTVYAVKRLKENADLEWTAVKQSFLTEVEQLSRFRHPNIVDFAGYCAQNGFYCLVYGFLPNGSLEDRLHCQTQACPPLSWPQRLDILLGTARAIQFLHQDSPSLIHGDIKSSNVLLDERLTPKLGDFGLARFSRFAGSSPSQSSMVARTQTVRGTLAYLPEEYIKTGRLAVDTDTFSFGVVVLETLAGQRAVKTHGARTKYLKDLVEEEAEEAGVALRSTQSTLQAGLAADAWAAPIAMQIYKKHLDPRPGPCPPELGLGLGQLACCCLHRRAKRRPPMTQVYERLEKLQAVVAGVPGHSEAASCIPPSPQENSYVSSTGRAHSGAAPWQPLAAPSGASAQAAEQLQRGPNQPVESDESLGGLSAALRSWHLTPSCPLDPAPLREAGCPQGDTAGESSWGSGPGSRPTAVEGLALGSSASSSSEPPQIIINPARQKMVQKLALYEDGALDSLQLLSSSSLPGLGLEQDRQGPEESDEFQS
pIC50: −log10 of the molar value.
Endpoint name: pIC50

{"Compound": "O=C1CCC(N2C(=O)c3cccc(NCCOCCOCCOCCOCCC(=O)N4CCC(c5cc(NC(=O)c6cccc(-c7ccn[nH]7)n6)n(-c6ccccn6)n5)CC4)c3C2=O)C(=O)N1 (stereo not shown) [Compound 1]", "Measured": 7.37}
{"Compound": "O=C1CCC(N2C(=O)c3cccc(OCCCCCCCCC(=O)N4CCC(c5cc(NC(=O)c6cccc(-c7ccn[nH]7)n6)n(-c6ccccn6)n5)CC4)c3C2=O)C(=O)N1 (stereo not shown) [Compound 4]", "Measured": 6.67}
{"Compound": "CC(C)N1CCC(c2cc(NC(=O)c3cccc(-c4ccn[nH]4)n3)n(-c3ccccn3)n2)CC1 [TL1, reference compound]", "Measured": 8.15}
{"Compound": "C=CC(=O)Nc1cccc(C(=O)Nc2ccc(NC(=O)c3cccc(-c4ccn[nH]4)n3)cc2)c1 [TL2, reference compound]", "Measured": 8.05}
